Let's look at some molecules and their measured growth.
# Test system: RXF 393 renal
# Test details: NCI-60 one-dose screen, 48 h (100 = growth as untreated, 0 = no growth, -100 = all killed)
# Measurement conditions: 10 µM unless noted
# Method: Cells are grown in 96 well plates and exposed to the test compound for 48 hours. Compounds are tested at a single concentration, which is 10^-5 M for most compounds. The reported endpoint is percent growth (GI% or GIPRCNT), where numbers from 0 - 100% represent growth inhibition, and numbers from -100% - 0 represent cell death. For example, a value of 40 represents 60% growth inhibition. A value of 0 means no net growth occurred over the course of the experiment. […]
This is part of a sample that, as a whole, favours compounds with a hit. Of some 83,000 tested, about 20% had one in any assay.

[
  {
    "Molecule": "CCCCCN1C=C/C(=C\\C(=O)N(C)c2cccc3ccccc23)c2ccccc21",
    "growth, %": 107
  },
  {
    "Molecule": "CC(C)C1C2=C(NCCN1C(=O)Cc1ccccc1)C(C)(C)N(Cc1ccccc1)C2=O (stereo not given)",
    "growth, %": 98.3
  },
  {
    "Molecule": "O=C1Nc2cc(-c3ccncc3)ccc2/C1=C/c1ccc[nH]1",
    "growth, %": 93.1
  },
  {
    "Molecule": "CC(=O)[C@@H]1CC[C@]2(C(=O)n3ccnc3)CC[C@]3(C)[C@H](CC[C@@H]4[C@@]5(C)Cc6c([nH]c7ccccc67)C(C)(C)[C@@H]5CC[C@]43C)[C@@H]12",
    "growth, %": 106
  },
  {
    "Molecule": "O=C1CCCN1c1cccc2cccnc12",
    "growth, %": 102
  },
  {
    "Molecule": "CC(=O)c1c(-c2ccc(OC(F)(F)F)cc2)nc2ccccn12",
    "growth, %": 108
  },
  {
    "Molecule": "CCc1c(Nc2ccc(C)cc2)[nH]c(N)nc1=S",
    "growth, %": 113
  },
  {
    "Molecule": "CCOC(=O)C1=C(C)NC(C)=C(C(=O)OCC)C1c1cc(Br)c(O)c(OC)c1",
    "growth, %": -26.6
  },
  {
    "Molecule": "COc1ccc(C(=O)/C=C/c2ccc(OCc3ccccc3)c(OC)c2)cc1OC",
    "growth, %": 75.1
  },
  {
    "Molecule": "O=C(OC(OC(=O)c1cc(Cl)cc(Cl)c1)c1cccc2ccccc12)c1ccccc1 (stereo not given)",
    "growth, %": 110
  },
  {
    "Molecule": "CCCCCCNC(=O)Oc1ccc(/C(=C(/CC)Cc2ccccc2)c2ccc(OCCN(CC)CC)cc2)cc1",
    "growth, %": 60.2
  },
  {
    "Molecule": "N#Cc1c(Nc2ccccc2)nn2cc(-c3nc4ccccc4s3)c(N)nc12",
    "growth, %": 87.8
  },
  {
    "Molecule": "COc1cc2nc(-c3ccc(C(F)(F)F)cc3)cc(OCCN3CCC(O)CC3)c2cc1OC",
    "growth, %": 61.2
  },
  {
    "Molecule": "Cc1ccc(O)c(C(=O)O)c1",
    "growth, %": 121
  },
  {
    "Molecule": "COc1ccccc1OCC(=O)N1CCCCCC1",
    "growth, %": 97
  }
]
